Reference source: patent US20240309103A1

Biological target: T1, human NPR1 extracellular domain expressed with a C-terminal myc-myc-hexahistidine (hNPR1-MMH) (human, UniProt P16066 33-473)
T1 construct: also called hNPR.mmh; monomeric human NPR1
T1 sequence (P16066 other isoform, or with tags, fused parts or gaps): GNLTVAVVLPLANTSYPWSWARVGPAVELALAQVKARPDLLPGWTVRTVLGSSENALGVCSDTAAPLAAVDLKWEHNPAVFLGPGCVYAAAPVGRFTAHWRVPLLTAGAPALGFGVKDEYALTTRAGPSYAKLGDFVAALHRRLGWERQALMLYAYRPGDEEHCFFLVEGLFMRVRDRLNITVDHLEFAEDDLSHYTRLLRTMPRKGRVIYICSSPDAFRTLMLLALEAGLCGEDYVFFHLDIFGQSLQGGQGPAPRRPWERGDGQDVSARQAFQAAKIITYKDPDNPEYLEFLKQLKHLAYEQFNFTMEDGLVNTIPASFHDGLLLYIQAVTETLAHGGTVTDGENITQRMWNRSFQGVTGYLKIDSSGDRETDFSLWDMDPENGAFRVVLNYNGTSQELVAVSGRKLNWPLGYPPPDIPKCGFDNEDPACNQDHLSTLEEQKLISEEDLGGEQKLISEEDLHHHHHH
Assay: SPR, mAb captured, 25 C
Recorded koff values for a group of binders are listed next.
Value expressed in s⁻¹; do not type the unit.

Form field koff, entry mAb25497 (antibody, V domains shown) VH: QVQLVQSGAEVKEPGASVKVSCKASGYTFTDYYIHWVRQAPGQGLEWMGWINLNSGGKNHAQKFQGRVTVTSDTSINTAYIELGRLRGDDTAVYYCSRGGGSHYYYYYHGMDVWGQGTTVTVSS VL: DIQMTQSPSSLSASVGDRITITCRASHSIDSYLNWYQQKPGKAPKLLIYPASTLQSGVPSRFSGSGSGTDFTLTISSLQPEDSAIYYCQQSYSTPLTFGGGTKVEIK : 0.00167

The binder listed as mAb25479 (antibody, V domains shown) VH: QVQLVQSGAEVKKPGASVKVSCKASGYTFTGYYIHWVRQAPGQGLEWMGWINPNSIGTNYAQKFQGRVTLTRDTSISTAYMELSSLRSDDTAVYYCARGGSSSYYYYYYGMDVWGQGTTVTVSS VL: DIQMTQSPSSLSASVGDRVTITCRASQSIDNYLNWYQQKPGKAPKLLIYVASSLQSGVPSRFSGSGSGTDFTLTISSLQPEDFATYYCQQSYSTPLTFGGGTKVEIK shows koff equal to 0.00673

---
response.value for mAb22035 (antibody, V domains shown) VH: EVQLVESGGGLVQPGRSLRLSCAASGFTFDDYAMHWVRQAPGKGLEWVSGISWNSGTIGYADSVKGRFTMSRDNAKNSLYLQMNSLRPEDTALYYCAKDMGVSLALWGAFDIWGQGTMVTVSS VL: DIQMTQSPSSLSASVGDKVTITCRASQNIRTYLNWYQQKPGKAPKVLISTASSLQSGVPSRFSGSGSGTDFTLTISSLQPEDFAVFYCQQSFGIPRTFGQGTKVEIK (field: koff) = 0.00015

// mAb25508 (antibody, V domains shown) VH: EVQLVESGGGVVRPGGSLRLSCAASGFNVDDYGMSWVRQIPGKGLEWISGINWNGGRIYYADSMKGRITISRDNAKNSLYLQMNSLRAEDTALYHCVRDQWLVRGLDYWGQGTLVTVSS VL: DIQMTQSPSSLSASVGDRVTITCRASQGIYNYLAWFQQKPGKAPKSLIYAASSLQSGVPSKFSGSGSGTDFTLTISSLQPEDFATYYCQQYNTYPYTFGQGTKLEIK : koff value = 0.000134

Notebook: mAb22033 (antibody, V domains shown) VH: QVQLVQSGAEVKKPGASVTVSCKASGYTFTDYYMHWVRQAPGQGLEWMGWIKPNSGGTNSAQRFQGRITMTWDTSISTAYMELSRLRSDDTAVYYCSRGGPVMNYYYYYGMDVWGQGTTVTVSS VL: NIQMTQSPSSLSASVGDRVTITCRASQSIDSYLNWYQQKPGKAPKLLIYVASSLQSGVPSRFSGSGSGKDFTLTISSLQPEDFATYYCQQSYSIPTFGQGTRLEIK , koff read as 0.000406

// recorded koff for mAb25491 (antibody, V domains shown) VH: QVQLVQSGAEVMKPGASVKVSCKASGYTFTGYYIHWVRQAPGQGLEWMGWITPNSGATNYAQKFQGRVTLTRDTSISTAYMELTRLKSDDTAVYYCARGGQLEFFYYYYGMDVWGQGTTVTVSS VL: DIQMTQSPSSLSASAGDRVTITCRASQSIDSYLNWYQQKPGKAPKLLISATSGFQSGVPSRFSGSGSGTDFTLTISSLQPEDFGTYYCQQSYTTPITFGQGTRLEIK : 0.000983
